Every entry's value here was drawn from the supplement of paper PMC12042874.

Assay: amyloid nucleation score (Sup35N fusion, yeast selection) (log enrichment); library NNK3; higher = more nucleation; inactive = no reads after selection;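 also: zero at mode of non-aggregating sequences after 7 days selection at 30°C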
readout-type: amyloid nucleation score

Known amyloid nucleation score results, listed for orientation:
>>> print(df.to_string())
              substance              readout_type    result
0            DWRMAYVSVC  amyloid nucleation score  inactive
1               YYRLFLI  amyloid nucleation score  inactive
2  CHNKKWVDFNVCFYNMLSFY  amyloid nucleation score  inactive
3       QGIGGATVTFLRLFV  amyloid nucleation score  inactive
4              RKNVRMMA  amyloid nucleation score  inactive
5                HNKDDK  amyloid nucleation score  inactive
6  AVIWGEAPRIFLTCGALRRE  amyloid nucleation score  inactive
7  NNTDCYESNVVFFSTAIHLS  amyloid nucleation score       1.6
8    IRTSLSSVLDVCHTSNTI  amyloid nucleation score  inactive
9    ISMFDPLRCPWSNYGMCG  amyloid nucleation score  inactive

Challenge: Hello, please tell me recorded amyloid nucleation score for this one: VLFCRFSSWV
Response given: 0.739

Challenge: Hello, please tell me recorded amyloid nucleation score for this one: LISAYVGWDICLASML
Response given: inactive

Challenge: Hello, please tell me recorded amyloid nucleation score for this one: EFQGQTKSSWAYRLDKLCLP
Response given: inactive

Challenge: Hello, please tell me recorded amyloid nucleation score for this one: KVIDGFLTLLSVNHRCKAWQ
Response given: inactive

Challenge: Hello, please tell me recorded amyloid nucleation score for this one: SMLSMLTLRSLSLTFMKRNQ
Response given: 0.626

Challenge: Hello, please tell me recorded amyloid nucleation score for this one: TNFAYMQREGS
Response given: inactive

Challenge: Hello, please tell me recorded amyloid nucleation score for this one: LRTWLL
Response given: inactive
